Measurement Target: furin, P09958;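 also: purified furin at 1:10 enzyme:substrate in 50 mM HEPES pH 7.5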
Sequence (P09958 whole entry): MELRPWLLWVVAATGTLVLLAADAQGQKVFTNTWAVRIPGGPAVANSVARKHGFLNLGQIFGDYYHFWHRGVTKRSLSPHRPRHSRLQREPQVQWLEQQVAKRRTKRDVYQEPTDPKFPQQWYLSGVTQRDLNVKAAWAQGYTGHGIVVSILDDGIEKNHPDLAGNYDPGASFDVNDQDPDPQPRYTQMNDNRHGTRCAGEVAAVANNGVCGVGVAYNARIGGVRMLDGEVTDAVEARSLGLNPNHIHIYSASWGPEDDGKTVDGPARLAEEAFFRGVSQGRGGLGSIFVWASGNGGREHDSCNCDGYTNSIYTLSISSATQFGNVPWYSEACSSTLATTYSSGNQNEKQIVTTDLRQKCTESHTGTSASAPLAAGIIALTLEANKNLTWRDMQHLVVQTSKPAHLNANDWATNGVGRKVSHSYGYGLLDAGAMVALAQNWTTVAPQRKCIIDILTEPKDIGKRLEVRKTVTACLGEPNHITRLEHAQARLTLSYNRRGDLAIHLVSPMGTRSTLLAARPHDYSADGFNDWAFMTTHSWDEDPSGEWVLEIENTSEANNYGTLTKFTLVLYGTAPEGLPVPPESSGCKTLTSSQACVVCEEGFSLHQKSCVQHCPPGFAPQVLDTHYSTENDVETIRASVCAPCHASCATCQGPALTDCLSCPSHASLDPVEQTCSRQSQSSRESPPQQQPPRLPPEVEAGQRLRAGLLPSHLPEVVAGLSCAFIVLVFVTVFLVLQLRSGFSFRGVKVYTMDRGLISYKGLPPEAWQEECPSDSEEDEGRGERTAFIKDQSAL
Assay Method Text: furin cleavage Z-score vs untreated control; higher = more cleavage, active = 3.5 or more, inactive = 1 or less, 8 variable residues between constant flanks
Condition Details: 15 min
The list shows a part of the results. How many sequences the whole screen found active is unknown.
Classes used: Yes (active), No (inactive)

>>> classification("CARFRRSETPAGNASASA [FS-1854]")
"Yes"
>>> classification("CARFRKAYKPAGNASASA [FS-2926]")
"No"
>>> classification("CARFRRSVPRAGNASASA [FS-2667]")
"Yes"
>>> classification("CARFYRYMGRAGNASASA [FS-2141]")
"No"
>>> classification("CARSRRQDVRAGNASASA [FS-2818]")
"Yes"
>>> classification("CARSRRRSGRAGNASASA [FS-3094]")
"No"
>>> classification("CAKKKCDELAAGNASASA [HC859]")
"No"
